Let's look at some compounds and their measured GI50.
# Tested on: MDA-MB-435

Reference set, count: 2
Clc1ccc2c(c1)-c1ccccc1C1=NCCN12; 2040 nM
CC(C)C[C@@H]1NC(=O)[C@@H]2CCCN2C(=O)[C@@H]2CCCN2C(=O)[C@H](CC(C)C)NC(=O)[C@H](CO)NC(=O)[C@H](CCCCN)NC(=O)[C@H]([C@H](C)O)NC(=O)[C@@H]2CCCC[C@@H](NC1=O)C(=O)N[C@@H](Cc1ccccc1)C(=O)N1CCC[C@H]1C(=O)N[C@@H](CC(=O)O)C(=O)NCC(=O)N[C@@H](CCCN=C(N)N)C(=O)N2; > 50000 nM

Reported GI50 for MDA-MB-435, given CSC1C(=O)c2ccccc2/C(=N/Nc2nc3ccccc3s2)C1C (centres undefined) ?
9380 nM

Reported GI50 for MDA-MB-435, given CS(=O)(=O)Nc1cc(-c2ccc3ncnc(Nc4ccc5c(cnn5Cc5ccccc5F)c4)c3c2)cnc1Cl ?
2350 nM

Source of measurements: PubChem BioAssay (NCI)
